B1: TPR t1 (parent)
chain: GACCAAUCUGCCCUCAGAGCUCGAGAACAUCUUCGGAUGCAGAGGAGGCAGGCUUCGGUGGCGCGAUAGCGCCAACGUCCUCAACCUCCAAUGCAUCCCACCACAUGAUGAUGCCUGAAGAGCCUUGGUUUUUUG

Variants of: B1
Test: polymerase ribozyme fitness, log enrichment relative to wild type (log ratio); higher = more active; in vitro selection for triplet polymerase activity
reported.metric: polymerase ribozyme fitness (log ratio)
Form field (numeric): enter value without unit.

Known results for variants:
[[record]]
residues = "GACCAAUCUGCCCUCCGAGCUCGAGAACAUCUUCGGAUGCAGAGGAGGCAGGCUUUGGUGGCGCGAUAGCGCCAACGUCCUCAACCUCCAAUGCAUCCCACCACAUGAUGAUGCCUGAAGAGCCUUGGUUUUUUG [A16C C56U]"
measured = -2

[[record]]
residues = "GACCUAUCUGCCCUCAGAGCUCGAGAACAUCUUCGGAUGCAGAGGAGGCAGGCUUCGGUGGCGCGAUAGCGCCAACGUCCACAACCUCCCACGCAUCCCACCACAUGAUGAUGCCUGAAGAGCCUUGGUUUUUUG [A5U U81A A90C U92C]"
measured = -3.49

[[record]]
residues = "GACCAAUCUGCCCUCAGAGCUCGAGAACAUCUUCGAAUGCAGAUGAGGCAGGCUUCGGUGGCGCGAUAGCGACAACGUCCUCAACCUACAAUGCAUCCCACCACAGGAUGAUCCCUGAAGAGCCUUGGUUUUUUG [G36A G44U C72A C88A U106G G113C]"
measured = -5.9

[[record]]
residues = "GACCAAUCUGCCCUCAGAGCUCGAGAACAUCUUCGGAUGCAGAGGAAGCACGCUUCGGUGGCGCGAUAGCGCCAACCUCUUCAACCCCCAAUGCAUCCCACCACAUGAUGAUGCCUGAAGAGCGUUGGUUGUUUG [G47A G51C G77C C80U U87C C124G U131G]"
measured = -1.89

[[record]]
residues = "GACCUAUCUGCUCUCAGAGCUCGAGAACAUCUUCGGAUGCAGAGGAGGCAGGCUUCGGUGGCGCGAUAGCGCCAACGCCUUCAACCUCCAAUGCAUCCCACCACAUGAUGAUGCCUGAAGAGCCUUGGUUUUUUG [A5U C12U U78C C80U]"
measured = -1.23

[[record]]
residues = "GACCAAUCUGCCCUAAGAGCUCGAGAACAUCUUCGGUUACAUAGGAGGCAGGCUUCGGUGGCGCGAUAGCGCCAACGUCCUCAACCUCCUAUGCAUCCCACCACAUGAUGAUGCCUGAAGAGCCUUGGUUUUUUG [C15A A37U G39A G42U A90U]"
measured = -3.14


Consider GACCAAUCUGCCCUCAGAGAUCGAGAACAUCUUCGGAUGCAGAGGAGGCAGGCUUCGGUGGCGCGAUAGCGCCAACGUCCUCAACGUCCAAUGCAUCCCACCACAUGAUGAUGUUUGAAGAGCCUUGGUUUUUUG [C20A C86G C114U C115U] . Its measured polymerase ribozyme fitness (log ratio) is -5.24

Consider GACCAAUCUGUCCUCAGAGCUCGAGAACAUCUACGGAUGCAGAGGAGGCAGGCUUCGGUGGCGCGAUAGCGCCAACGUCCUCAAGCUCCAAUGCAUCCCAUCACAUGAUGAUGCCUGAAGAGCCUUGGUUUUUUG [C11U U33A C85G C101U] . Its measured polymerase ribozyme fitness (log ratio) is -5.74

Consider GACCAAUCUGCCCUCAGAGCCCGAGAACAUCUUCGGAUGCAGAGGAGGCAGGCUUCGGUGGCGCGAUAUCGCCAACGUCCUCAACCUCUAAUGCAUCCCACCACAUGAUGAUGCCUGAAGAGCCUUGGUUUUUUG [U21C G69U C89U] . Its measured polymerase ribozyme fitness (log ratio) is -0.984

Consider GACCAAUCUGCCCUCAGAGCUCGAGAACAUCUUCGGAGGCAGAGGAGGGAGGCUUCGGUGGCGCGAUAGCGCCAACGUCCUCAACCUCCAAUGCAUCCCACCACAUGAUGAUGCCUGAAGAGCCUUGGUUUUUUG [U38G C49G] . Its measured polymerase ribozyme fitness (log ratio) is -2.14

Consider GACCAAUCUGCCCUCAGAGCUCGAGAACAUCUUCGGAUGCAGAGGGGGCAGGCUUCGGUGGCGCGAUAUCGCCAACGUCCUCAACCUCCAAUGCAUCCCACCACAUGAUGAUGCCUGAAGAGCCUUGGUUUUUUG [A46G G69U] . Its measured polymerase ribozyme fitness (log ratio) is 0.473

Consider GACCAAUCUGCCCUCAGAGCUCGAGAACAUCUUGGGAUGCAGAGGAGGCAGGCUUCGGUGGCUCGAUAGCGUCAACGUCCUCAACCUCCAAUGCAUCCCACCACAUGAUUAUGCCUGAAGAGCCUUGGUUUUUUG [C34G G63U C72U G110U] . Its measured polymerase ribozyme fitness (log ratio) is -8.01

Consider GACCAAUCUUCCCUCAGAGCUCGAGAACAUCUUCGGAUGCAGAGGAGGCAGUCUUCGGUGGCGCGAUAGCGCGAACGUCCUCAACCUCCAAUGCAUCCCACCACAUGAUGAUGCCUGAAGAGCCUUGGUUUUUUG [G10U G52U C73G] . Its measured polymerase ribozyme fitness (log ratio) is -0.827

Consider GACCAAUCUGCCCUCAGAGCUCGAGAACAUCUUCGGAUGAAGAGGAGGCAGGCUUCGGUGGCGCGAUAGCGCCAACGUCCUCAACCUCCAAGGCAUCCCACCACAUGAUGAUGCCUGAAGAGCCUUGGUUUUUUG [C40A U92G] . Its measured polymerase ribozyme fitness (log ratio) is -2.37

Consider GACCAAUCUGCCCUCGGAGCUCGAGAACAUCUUCGGAUGCAGAGGAGGCAGGCUUCGGUGGCGCGAUGGCGCCAACGUCCUCAACCUCCAAUGCAUCCCACCACAUGAUGAUGCCUGAAGAGCCUUGGUUUUUUG [A16G A68G] . Its measured polymerase ribozyme fitness (log ratio) is -4.75

Consider GACCAAUCUGCCCUCAGAGCUCGAGAACAUCUUCGGAUGCAGAGGAGGCAGGCUUCGGUGGCGCGAUAGCGCCAACGUCCUCAACCUCUAAUGCAUCCCACCACAUGGUGAUGCCUGAGGAGCCUUGGUUGCUUG [C89U A108G A119G U131G U132C] . Its measured polymerase ribozyme fitness (log ratio) is -1.34

Consider GACCAAUCUGCCCUCAGAGCUCGAGAACAUCUUCGGAUGCAGAGGAGGCAGGCUUCGGUGGCGCGAUAGCGACAACGUCCUCAACCUCCAAUGUAUCCCACCACAUGAUGAUGCCUGAAGAGCCUUGGUUUUUUG [C72A C94U] . Its measured polymerase ribozyme fitness (log ratio) is -0.00506

Consider GACCAAUCUGCCCUCCGAGCUCGAGAACAUCUUCGGAUGCAGACGAGGUAGGCUUCGGUGGCGCGAUAGCGCCAACGUCCUCAACCUCCAAUGCAUCCCACCACAUGAUGAUGCCUGAAGAGCCUUGGUUUUUUG [A16C G44C C49U] . Its measured polymerase ribozyme fitness (log ratio) is -3.94

Consider GACCAAUCGGCCCUCAGAGCUGGAGAACAUCUUCGGAUGCAGAGGAGGCAGGCUUCGGUGGCGCGAUAGCGCCAACGUCCCCAACCUCCAAUGCAUCCCACCACAUGAUGAUGCCUGAAGAGCCUUGGUUUUUUG [U9G C22G U81C] . Its measured polymerase ribozyme fitness (log ratio) is -3.31

Consider GACCAAUCUGCCCUCAGAAUUCGAGAACAUCUUCGGAUGCAGAGGAGGCAGGCUGCUGUGGCGCGAUAGCGCCAACGUCCUCAACCUCCAAUGCAUCCAACCACAUGAUGAUUCCUGAAGAGCCUUGGUUUUUUG [G19A C20U U55G G57U C99A G113U] . Its measured polymerase ribozyme fitness (log ratio) is -6.19

Consider GACCAAUCUGCCGUCAGAGCUCGAGAACAUCUUCGGAUGCAGAGGAGUCAGGCUUCGGUGGCGCGAUAGCGCCAACGUCCUCAACCUCCAAUGCAUCCCACCACAUGAUGAUGCCUGAAGAGCCUUGGUUUUUUG [C13G G48U] . Its measured polymerase ribozyme fitness (log ratio) is -2.21
